System: Escherichia coli
Experiment: Antibacterial activity against Escherichia coli CCUG assessed as bacterial growth inhibition incubated for 18 hrs by micro-dilution broth method
Format: functional
# note: boundary value 30 µg/mL maps to -1; MIC below it maps to 1

Example entries begin here.
[
  {
    "chemical-structure": "N=C(NCCCCCCCCNC(=O)N(CCCCCCCCNC(=N)NCC1CC1)CCCCCCCCNC(=N)NCC1CC1)NCC1CC1.O=C(O)C(F)(F)F",
    "target-system": "Escherichia coli",
    "category": 1
  },
  {
    "chemical-structure": "N=C(N)NCCCCCCN(CCCCCCN)C(=O)N(CCCCCCN)CCCCCCNC(=N)N",
    "target-system": "Escherichia coli",
    "category": -1
  },
  {
    "chemical-structure": "N=C(NCCCCCCCCNC(N)=O)NCC1CC1.O=C(O)C(F)(F)F",
    "target-system": "Escherichia coli",
    "category": 1
  },
  {
    "chemical-structure": "CCCCCCN(CCCCCCNC(=N)NCC1CC1)C(=O)N(CCCCCCCCNC(=N)NCC1CC1)CCCCCCNC(=N)NCC1CC1",
    "target-system": "Escherichia coli",
    "category": 1
  },
  {
    "chemical-structure": "CCCCCCCCN(CCCCCCCC)C(=O)N(CCCCCCCCNC(=N)NCC1CC1)CCCCCCCCNC(=N)NCC1CC1.O=C(O)C(F)(F)F",
    "target-system": "Escherichia coli",
    "category": -1
  },
  {
    "chemical-structure": "CNC(=O)N(CCCCCCCCNC(=N)NCC1CC1)CCCCCCCCNC(=N)NCC1CC1",
    "target-system": "Escherichia coli",
    "category": -1
  }
]

QUERY: Please determine if N=C(N)NCCCCCCCCN(CCCCCCCCN)C(=O)N(CCCCCCCCN)CCCCCCCCN is below 30 µg/mL in terms of MIC.
RESULT: -1

QUERY: Is the reported MIC for CCCCCCN(CCCCCCCCNC(=N)NCC1CC1)C(=O)N(CCCCCCCCNC(=N)NCC1CC1)CCCCCCCCNC(=N)NCC1CC1 strictly below 30 µg/mL?
RESULT: 1

QUERY: Please check: MIC for NCCCCCCCCN(CCCCCCCCN)C(=O)N(CCCCCCCCN)CCCCCCCCN , strictly under 30 µg/mL or not?
RESULT: -1

Data provenance is ChEMBL document CHEMBL5154741.
